The reported measurements were obtained from ChEMBL document CHEMBL4715798.

Give log10 EC50 for every item shown.
- TARGET_UNDER_TEST: Mu-type opioid receptor (Homo sapiens, UniProt P35372)
- Sequence (P35372 whole entry): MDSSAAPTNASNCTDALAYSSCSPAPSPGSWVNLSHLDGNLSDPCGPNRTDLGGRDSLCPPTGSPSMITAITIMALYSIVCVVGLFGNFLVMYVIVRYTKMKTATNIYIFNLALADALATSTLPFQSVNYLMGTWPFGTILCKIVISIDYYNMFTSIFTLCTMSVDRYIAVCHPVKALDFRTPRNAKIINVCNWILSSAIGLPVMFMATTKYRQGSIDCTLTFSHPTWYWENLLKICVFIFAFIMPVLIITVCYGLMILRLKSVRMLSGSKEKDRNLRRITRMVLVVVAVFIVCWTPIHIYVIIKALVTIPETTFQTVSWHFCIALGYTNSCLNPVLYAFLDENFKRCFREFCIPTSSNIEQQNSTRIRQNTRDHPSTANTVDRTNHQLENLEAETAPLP
- ASSAY_METHOD_TEXT: Agonist activity at mu opioid receptor (unknown origin) expressed in HEK293-A cells assessed as reduction in forskolin-induced cAMP accumulation incubated for 30 mins by competition PKA binding assay
- Assay type: functional, cell-based
- SETTINGS: read-out: EC50
Non-standard residues stand in square brackets, D forms with d. Residues, ends and D or L forms follow the SMILES beside them. NMeY = CN[C@@H](Cc1ccc(O)cc1)C(=O)O; NMeF = CN[C@@H](Cc1ccccc1)C(=O)O
Scale: log10; quantity: EC50; unit before log: nM

N=C(N)NCCC[C@H](NC(=O)[C@H](CCC(N)=O)NC(=O)[C@@H]1CCCN1C(=O)[C@H](CCC(N)=O)NC(=O)[C@H](Cc1ccccc1)NC(=O)CNC(=O)[C@@H](CO)NC(=O)[C@@H](N)Cc1ccc(O)cc1)C(=O)N[C@@H](Cc1ccccc1)C(N)=O
2.75
CSCC[C@H](NC(=O)[C@H](Cc1ccccc1)NC(=O)CNC(=O)[C@@H](C)NC(=O)[C@@H](N)Cc1ccc(O)cc1)C(=O)N1CCC[C@H]1C(=O)N[C@@H](CCC(N)=O)C(=O)N[C@@H](CCCNC(=N)N)C(=O)N[C@@H](Cc1ccccc1)C(N)=O (H-Y[dA]GFMPQRF-NH2)
2.10
CC(C)C[C@H](NC(=O)[C@H](Cc1ccccc1)NC(=O)CNC(=O)[C@@H](C)NC(=O)[C@@H](N)Cc1ccc(O)cc1)C(=O)N1CCC[C@H]1C(=O)N[C@@H](CCC(N)=O)C(=O)N[C@@H](CCCNC(=N)N)C(=O)N[C@@H](Cc1ccccc1)C(N)=O (H-Y[dA]GFLPQRF-NH2)
2.40
C[C@@H](NC(=O)[C@@H](N)Cc1ccc(O)cc1)C(=O)NCC(=O)N[C@@H](Cc1ccccc1)C(=O)NCC(=O)N1CCC[C@H]1C(=O)N[C@@H](CCC(N)=O)C(=O)N[C@@H](CCCNC(=N)N)C(=O)N[C@@H](Cc1ccccc1)C(N)=O (H-Y[dA]GFGPQRF-NH2)
1.45
C[C@@H](NC(=O)[C@@H](N)Cc1ccc(O)cc1)C(=O)NCC(=O)N(C)[C@@H](Cc1ccccc1)C(=O)N[C@@H](CCC(N)=O)C(=O)N1CCC[C@H]1C(=O)N[C@@H](CCC(N)=O)C(=O)N[C@@H](CCCNC(=N)N)C(=O)N[C@@H](Cc1ccccc1)C(N)=O (H-Y[dA]G[NMeF]QPQRF-NH2)
1.30

Each compound below has a recorded value; state its log10 EC50.
1. CSCC[C@@H](NC(=O)[C@H](Cc1ccccc1)NC(=O)CNC(=O)[C@@H](C)NC(=O)[C@@H](N)Cc1ccc(O)cc1)C(=O)N1CCC[C@H]1C(=O)N[C@@H](CCC(N)=O)C(=O)N[C@@H](CCCNC(=N)N)C(=O)N[C@@H](Cc1ccccc1)C(N)=O (H-Y[dA]GF[dM]PQRF-NH2)
2. CC(C)C[C@@H](NC(=O)[C@H](Cc1ccccc1)NC(=O)CNC(=O)[C@@H](C)NC(=O)[C@@H](N)Cc1ccc(O)cc1)C(=O)N1CCC[C@H]1C(=O)N[C@@H](CCC(N)=O)C(=O)N[C@@H](CCCNC(=N)N)C(=O)N[C@@H](Cc1ccccc1)C(N)=O (H-Y[dA]GF[dL]PQRF-NH2)
3. CN[C@@H](Cc1ccc(O)cc1)C(=O)N[C@H](C)C(=O)NCC(=O)N[C@@H](Cc1ccccc1)C(=O)N[C@@H](CCC(N)=O)C(=O)N1CCC[C@H]1C(=O)N[C@@H](CCC(N)=O)C(=O)N[C@@H](CCCNC(=N)N)C(=O)N[C@@H](Cc1ccccc1)C(N)=O (H-[NMeY][dA]GFQPQRF-NH2)

-- reply
1. 2.61
2. 2.77
3. 2.29

Each compound below has a recorded value; state its log10 EC50.
1. CSCC[C@@H](NC(=O)[C@@H](N)Cc1ccc(O)cc1)C(=O)NCC(=O)N[C@@H](Cc1ccccc1)C(=O)N[C@@H](CCC(N)=O)C(=O)N1CCC[C@H]1C(=O)N[C@@H](CCC(N)=O)C(=O)N[C@@H](CCCNC(=N)N)C(=O)N[C@@H](Cc1ccccc1)C(N)=O
2. C[C@@H](NC(=O)[C@@H](N)Cc1ccc(O)cc1)C(=O)NCC(=O)N(C)[C@@H](Cc1ccccc1)C(=O)NCC(=O)N1CCC[C@H]1C(=O)N[C@@H](CCC(N)=O)C(=O)N[C@@H](CCCNC(=N)N)C(=O)N[C@@H](Cc1ccccc1)C(N)=O (H-Y[dA]G[NMeF]GPQRF-NH2)

-- reply
2.63
1.59
